Kindly state solubility for each of the entries shown.
- TEST_DESCRIPTION: Aqueous solubility of the compound
- Type: physicochemical
- DETAILS: buffer; read-out: solubility

Guide cases for solubility, answers given:
MOLECULAR_STRING | solubility
CCCn1c2cc(OCCC(C)C)ccc2c2cc[n+](CCC)c(C)c21.[Br-] | 185 µg/mL
CCCn1c2cc(OCc3ccccc3)ccc2c2cc[n+](CCC(C)C)c(C)c21.[Br-] | 164 µg/mL
CCCOc1ccc2c3cc[n+](CCC(C)C)c(C)c3n(CCC)c2c1.[Br-] | 196 µg/mL
Cc1c2c(cc[n+]1Cc1ccccc1)c1ccc(OCc3ccccc3)cc1n2Cc1ccccc1.[Br-] | 72.5 µg/mL
Cc1c2c(cc[n+]1CCO)c1ccc(OCCO)cc1n2CCO.[Br-] | > 206 µg/mL

// for each compound below, give its solubility
1. CCCn1c2cc(OCCC(C)C)ccc2c2cc[n+](CC)c(C)c21.[Br-]
2. CCCn1c2cc(OCc3ccccc3)ccc2c2cc[n+](CC(C)C)c(C)c21.[Br-]
3. CCCn1c2cc(OCc3ccccc3)ccc2c2cc[n+](CC)c(C)c21.[Br-]
4. Cc1c2c(cc[n+]1CCC(C)C)c1ccc(OCCO)cc1n2CCO.[Br-]

-- reply
1: 186 µg/mL; 2: 207 µg/mL; 3: 207 µg/mL; 4: > 219 µg/mL
